List of IC50 tested on purified wild type MGL (wt-MGLL 6H-11-313) (Homo sapiens, UniProt Q99685).
Experimental readout: IC50 (µM)

Ask: Look up IC50 for this compound: CC(C)n1c(C(F)(F)F)nc2cc(C(=O)N3CC(N4CCN(C(=O)c5cscn5)CC4)C3)ccc21
Reply: 4.1

(P) O=C(c1ccc2c(c1)CCN(C(=O)c1ccc[nH]1)C2)N1CC(N2CCN(C(=O)c3nccs3)CC2)C1
(Q) O=C(c1ccc2nc(-c3ccc(F)c(F)c3)oc2c1)N1CC(N2CCN(C(=O)c3cscn3)CC2)C1
Ask: Consider entries P and Q . Which has the numerically lower IC50? In your reply, give the label of the chosen option.
Reply: P
(P: 0.046 µM, Q: 0.071 µM)

====

- Target entity: purified wild type MGL (wt-MGLL 6H-11-313) (Homo sapiens, UniProt Q99685)
- Sequence (Q99685 1-303): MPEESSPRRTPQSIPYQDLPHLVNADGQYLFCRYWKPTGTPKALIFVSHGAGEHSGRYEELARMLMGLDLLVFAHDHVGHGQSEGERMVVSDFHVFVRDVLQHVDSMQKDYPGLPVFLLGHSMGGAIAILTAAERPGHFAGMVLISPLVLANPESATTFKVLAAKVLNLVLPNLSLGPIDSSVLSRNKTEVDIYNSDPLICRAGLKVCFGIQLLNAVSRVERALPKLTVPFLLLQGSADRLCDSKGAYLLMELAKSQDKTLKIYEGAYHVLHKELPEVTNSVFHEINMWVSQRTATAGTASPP
Experimental readout: IC50 (nM)

Look over these answered cases.
Ask: Look up IC50 for this molecule: Cc1cc(-n2ccc3cc(C(=O)N4CC(N5CCN(C(=O)c6nccs6)CC5)C4)ccc32)ccn1
Reply: 89

Ask: Look up IC50 for this molecule: Cc1cc(C(=O)N2CC(N3CCN(C(=O)c4nccs4)CC3)C2)c(C)n1Cc1ccc(S(N)(=O)=O)cc1
Reply: 5270

Ask: Look up IC50 for this molecule: O=C(c1ccccc1)N1CCN(C2CN(C(=O)c3cc4cc(C(F)(F)F)ccc4s3)C2)CC1
Reply: 321

Ask: Look up IC50 for this molecule: Cc1c(C(=O)N2CC(N3CCN(C(=O)c4nccs4)CC3)C2)sc2nc(C(F)(F)F)ccc12
Reply: 39

Ask: Look up IC50 for this molecule: O=C(c1ccccc1)N1CCN(C2CN(C(=O)c3sc4cc(Cl)ccc4c3C(F)(F)F)C2)CC1
Reply: 260

Ask: Look up IC50 for this molecule: O=C(c1nccs1)N1CC(N2CCN(C(=O)c3ccc(-c4ccccc4)cc3)C(c3ccccc3)C2)C1 (stereo not shown)
Reply: 1260

(1) O=C(c1ccc(-n2cnc3ccccc32)cc1)N1CCN(C2CN(C(=O)c3cscn3)C2)CC1
(2) Cc1cn(-c2ccc(F)c(F)c2)c2ccc(C(=O)N3CCN(C4CN(C(=O)c5nccs5)C4)CC3)cc12
Ask: Consider entries 1 and 2 . Which has the numerically lower IC50? In your reply, give the label of the chosen option.
Reply: 2

(P) O=C(c1ccc(-c2ccc(C(F)(F)F)s2)cc1)N1CC(N2CCN(C(=O)c3cncs3)CC2)C1
(Q) O=C(c1ccc(Oc2ccccc2Cl)nc1)N1CC(N2CCN(C(=O)c3nccs3)CC2)C1
(R) Cc1nn(-c2ccc(F)cc2)c(C)c1C(=O)N1CC(N2CCN(C(=O)c3nccs3)CC2)C1
(S) O=C(c1ccc2c(ccn2CC(F)F)c1)N1CC(N2CCN(C(=O)c3cscn3)CC2)C1
Ask: Hey, quick one: sort these by IC50, largest value first please. When ranking, write the labels in the order the request describes.
Reply: R, S, P, Q
(R: 4610 nM, S: 2420 nM, P: 1220 nM, Q: 106 nM)

These measurements were taken from patent US8362000B2.
